- Type: in vivo, rat
- run_conditions: single dose 150 µmol kg^−1 SC; 24 h
reported_metric: Bile/Urine (%): bile share of U excretion
Write down the numeric answer in % and omit the unit.

COc1ccc(C2=N[C@@H](C(=O)O)CS2)c(O)c1 [compound 3] = 37
COCCOCCOCCOc1cccc(C2=N[C@@](C)(C(=O)O)CS2)c1O [compound 10] = 55
O=C(O)CN(CCN(CC(=O)O)CC(=O)O)CCN(CC(=O)O)CC(=O)O [DTPA, Diethylenetriaminepentaacetic acid, reference compound] = 2
COc1ccc(C2=N[C@@](C)(C(=O)O)CS2)c(O)c1 [compound 7, (S)-4'-(CH3O)-DADFT] = 62

Please look at the following compound next.
Look up Bile/Urine (%): bile share of U excretion for this compound: COCCOCCOCCOc1ccc(C2=N[C@@](C)(C(=O)O)CS2)c(O)c1 [compound 9] 69
